Test system: RWPE-1 cells
TEST_NAME: MTT assay, normal RWPE-1
Type: cell-based, human
MEASUREMENT_CONDITIONS: Homo sapiens, RWPE-1, 72 h, mean ± SD
Assignment: determine reported IC50 for the given molecules.
Enter your answer as a number in µM; do not include the unit.

Please give measured IC50 of the following entry: COc1cccc2c1C(=O)c1c(O)c3c(c(O)c1C2=O)C[C@@](O)(C(=O)CO)C[C@@H]3O[C@H]1C[C@H](N)[C@H](O)[C@H](C)O1 [Doxorubicin] 0.65

Please give measured IC50 of the following entry: O=C(O)c1cn(C2CC2)c2cc(N3CCNCC3)c(F)cc2c1=O [Ciprofloxacin] 72.1
